target: CDK4/cyclinD3(h) (Homo sapiens, UniProt P11802); construct: purchased Eurofins, Dundee, Scotland; test: radiometric protein kinase assay, CDK4; assay type: biochemical; conditions: enzyme inhibition, ATP 20 μM
Sequence (P11802 whole entry): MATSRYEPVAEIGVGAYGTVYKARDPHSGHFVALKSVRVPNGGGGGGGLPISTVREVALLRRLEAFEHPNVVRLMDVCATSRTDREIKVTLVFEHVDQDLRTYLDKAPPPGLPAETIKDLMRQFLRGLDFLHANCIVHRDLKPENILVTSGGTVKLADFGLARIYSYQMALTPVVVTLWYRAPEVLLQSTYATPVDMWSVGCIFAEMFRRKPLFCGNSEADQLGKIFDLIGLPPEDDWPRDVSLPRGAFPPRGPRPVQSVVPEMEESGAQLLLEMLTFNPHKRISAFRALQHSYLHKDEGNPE
Sequence (P30281 whole entry partner): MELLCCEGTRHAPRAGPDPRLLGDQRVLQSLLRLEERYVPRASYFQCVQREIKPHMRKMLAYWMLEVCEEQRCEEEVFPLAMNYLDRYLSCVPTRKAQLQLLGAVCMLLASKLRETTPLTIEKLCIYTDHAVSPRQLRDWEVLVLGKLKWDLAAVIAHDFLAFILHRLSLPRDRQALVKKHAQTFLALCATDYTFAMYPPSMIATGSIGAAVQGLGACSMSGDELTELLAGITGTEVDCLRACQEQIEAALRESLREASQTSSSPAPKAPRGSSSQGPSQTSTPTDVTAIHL
The reader will find reported IC50 values listed item by item below.

- COMPOUND: "CC(C)n1cnc2c(Nc3cccc(Cl)c3)nc(N[C@@H]3CCCC[C@H]3N)nc21"
  IC50: "> 1000 nM"
- COMPOUND: "CC(=O)Nc1cc(Cl)cc(Nc2nc(N[C@@H]3CCCC[C@@H]3N)nc3c2ncn3C(C)C)c1"
  IC50: "611 nM"
- COMPOUND: "CC(C)n1cnc2c(Nc3cc(N)cc(Cl)c3)nc(N[C@H]3CCCNC3)nc21"
  IC50: "> 1000 nM"
- COMPOUND: "CC(C)n1cnc2c(Nc3cc(N)cc(Cl)c3)nc(N[C@@H]3CCCNC3)nc21"
  IC50: "> 1000 nM"
- COMPOUND: "CCn1cnc2c(Nc3cccc(Cl)c3)nc(N[C@@H]3CCCC[C@H]3N)nc21"
  IC50: "> 1000 nM"

Find the measured IC50 of CC(C)n1cnc2c(Nc3cc(N)cc(Cl)c3)nc(N[C@@H]3CCCC[C@H]3N)nc21 and report it. > 1000 nM

====

molecular target: CLK1(h) (Homo sapiens, UniProt P49759); construct: purchased Eurofins, Dundee, Scotland; assay: radiometric protein kinase assay, CLK1; type: biochemical
Sequence (P49759 whole entry): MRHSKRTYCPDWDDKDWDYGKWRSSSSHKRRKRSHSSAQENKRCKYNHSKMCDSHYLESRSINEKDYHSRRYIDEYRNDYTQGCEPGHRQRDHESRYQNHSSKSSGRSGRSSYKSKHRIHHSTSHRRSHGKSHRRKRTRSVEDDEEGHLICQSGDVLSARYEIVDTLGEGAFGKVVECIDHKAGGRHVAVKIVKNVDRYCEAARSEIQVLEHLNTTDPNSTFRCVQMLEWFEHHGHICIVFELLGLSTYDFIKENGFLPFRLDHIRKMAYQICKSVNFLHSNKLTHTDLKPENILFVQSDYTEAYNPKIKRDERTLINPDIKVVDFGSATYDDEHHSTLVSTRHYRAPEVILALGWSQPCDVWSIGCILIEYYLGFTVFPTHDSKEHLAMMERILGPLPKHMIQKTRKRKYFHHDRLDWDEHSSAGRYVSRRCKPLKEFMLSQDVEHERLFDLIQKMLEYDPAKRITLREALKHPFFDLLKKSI
MEASURED ATTRIBUTE: IC50

Dear colleague, please send me the reported IC50 for CCn1cnc2c(Nc3cccc(Cl)c3)nc(NC3CCCCC3N)nc21 (racemic) [CGP-74514A (1), reference compound] when you can. 148 nM

====

target: CDK4/cyclinD3(h) (Homo sapiens, UniProt P11802); construct: purchased Eurofins, Dundee, Scotland; experiment: radiometric protein kinase assay, CDK4; format: biochemical; details: enzyme inhibition, ATP 20 μM
IC50 values, listed per item

- COMPOUND: "CC(C)n1cnc2c(Nc3cc(N)cc(Cl)c3)nc(NC3CCCCC3N)nc21 (racemic)"
  IC50: "> 1000 nM"
- COMPOUND: "CC(C)n1cnc2c(Nc3cc(N)cc(Cl)c3)nc(N[C@H]3CCCC[C@H]3N)nc21"
  IC50: "> 1000 nM"
- COMPOUND: "CC(C)n1cnc2c(Nc3cc(N)cc(Cl)c3)nc(N[C@@H]3CCNC3)nc21"
  IC50: "> 1000 nM"
- COMPOUND: "CC(C)n1cnc2c(Nc3cc(N)cc(Cl)c3)nc(N[C@H]3CCNC3)nc21"
  IC50: "> 1000 nM"
- COMPOUND: "CC(C)n1cnc2c(Nc3cc(N)cc(Cl)c3)nc(N[C@H]3CCCC[C@@H]3N)nc21"
  IC50: "> 1000 nM"
- COMPOUND: "CC(=O)Nc1cc(Cl)cc(Nc2nc(NC3CCCCC3N)nc3c2ncn3C(C)C)c1 (racemic)"
  IC50: "930 nM"

For CCn1cnc2c(Nc3cccc(Cl)c3)nc(N[C@H]3CCCC[C@@H]3N)nc21 , write its IC50. > 1000 nM

Identify measured IC50 corresponding to CC(=O)Nc1cc(Cl)cc(Nc2nc(N[C@H]3CCCC[C@H]3N)nc3c2ncn3C(C)C)c1 > 1000 nM

Let me know recorded IC50 for CC(C)n1cnc2c(Nc3cccc(Cl)c3)nc(N[C@H]3CCCC[C@H]3N)nc21 , thanks. > 1000 nM

Give the value of IC50 reported for the following: CCn1cnc2c(Nc3cccc(Cl)c3)nc(NC3CCCCC3N)nc21 (racemic) [CGP-74514A (1), reference compound] 573 nM
